These entries and their values trace back to the supplement of paper PMC11208160.

- protocol: recombinant UMI read abundance after kanamycin selection (control-corrected) (log10(CPM+1)); higher = more efficient recombination; extreme values may be limits of the assay; sequences stand for … in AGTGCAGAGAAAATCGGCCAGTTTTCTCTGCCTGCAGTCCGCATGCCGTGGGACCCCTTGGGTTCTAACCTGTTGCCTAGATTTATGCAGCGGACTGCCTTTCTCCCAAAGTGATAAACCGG…AGGTTGGTTTCACT; site = the 11-nt donor;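 further: IS621 bridge recombinase in Escherichia coli cells against a fixed T5 target plasmid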
Let's look at some sequences and their measured recombinant UMI read abundance (log10).

- residues: "GGGAAACCATGGACCGGTTTTCCCGGTAATCCGTATTTGGC (site GGGAAACCTGC)"
  recombinant UMI read abundance (log10): 0
- residues: "GCCCCGCCATGGACCGGTTTTCCCGGTAATCCGTATTTGTA (site GCCACGCCTTA)"
  recombinant UMI read abundance (log10): 0.324
- residues: "AGGAAGACATGGACCGGTTTTCCCGGTAATCCGTATTTGCA (site GGGAAGACTTC)"
  recombinant UMI read abundance (log10): 0
- residues: "GCGAAGGCATGGACCGGTTTTCCCGGTAATCCGTATTTGGG (site GCGAAGGCTCC)"
  recombinant UMI read abundance (log10): 0.562
- residues: "GCGGAGGCATGGACCGGTTTTCCCGGTAATCCGTATTTGTG (site GCGGAGGCTCA)"
  recombinant UMI read abundance (log10): 1.37
- residues: "CCGAAACCATGGACCGGTTTTCCCGGTAATCCGTATTTGTT (site CGGAATCCTAA)"
  recombinant UMI read abundance (log10): 0.00312
- residues: "CGTTATCCATGGACCGGTTTTCCCGGTAATCCGTATTTGTT (site CGGAATCCTAA)"
  recombinant UMI read abundance (log10): 0
- residues: "CCCTTCTCATGGACCGGTTTTCCCGGTAATCCGTATTTGCG (site CCCTTCTCTCG)"
  recombinant UMI read abundance (log10): 1.08
- residues: "CTCCACACATGGACCGGTTTTCCCGGTAATCCGTATTTGTA (site CACCACACTTA)"
  recombinant UMI read abundance (log10): 1.47
